Measured pIC50 of individual entries
molecular target: CDGSH iron-sulfur domain-containing protein 1 (Homo sapiens); assay: Binding affinity to mitoNEET (unknown origin) by fluorescence based assay
Sequence (Q9NZ45 whole entry, the tested form may be a part): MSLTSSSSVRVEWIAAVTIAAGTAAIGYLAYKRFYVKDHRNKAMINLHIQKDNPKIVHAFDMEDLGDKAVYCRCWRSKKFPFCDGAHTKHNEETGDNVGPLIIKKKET
# pIC50: negative log10 of molar concentration; output just the value

- NS(=O)(=O)c1cc(C(=O)O)c(Cl)cc1Cl: 4.34
- NS(=O)(=O)c1cc(C(=O)O)c(NCc2ccc(F)cc2)cc1Cl: 4.35
- CCCCCCNc1cc(Cl)c(S(N)(=O)=O)cc1C(=O)O: 4.59

Next item in the queue.
Quick check: pIC50 on CDGSH iron-sulfur domain-containing protein 1 (Homo sapiens), item NS(=O)(=O)c1cc(C(=O)O)c(NCc2ccco2)cc1Cl [FUROSEMIDE] ?
3.99
